- tested-on: HDAC1 enzyme (Homo sapiens, UniProt Q13547)
- Construct: prepared by transducing full length HDAC1 and HDAC6 genes into Sf-9 insect cells; GST; purchased SignalChem; host or cells: Sf-9 insect cells
- Sequence (Q13547 whole entry): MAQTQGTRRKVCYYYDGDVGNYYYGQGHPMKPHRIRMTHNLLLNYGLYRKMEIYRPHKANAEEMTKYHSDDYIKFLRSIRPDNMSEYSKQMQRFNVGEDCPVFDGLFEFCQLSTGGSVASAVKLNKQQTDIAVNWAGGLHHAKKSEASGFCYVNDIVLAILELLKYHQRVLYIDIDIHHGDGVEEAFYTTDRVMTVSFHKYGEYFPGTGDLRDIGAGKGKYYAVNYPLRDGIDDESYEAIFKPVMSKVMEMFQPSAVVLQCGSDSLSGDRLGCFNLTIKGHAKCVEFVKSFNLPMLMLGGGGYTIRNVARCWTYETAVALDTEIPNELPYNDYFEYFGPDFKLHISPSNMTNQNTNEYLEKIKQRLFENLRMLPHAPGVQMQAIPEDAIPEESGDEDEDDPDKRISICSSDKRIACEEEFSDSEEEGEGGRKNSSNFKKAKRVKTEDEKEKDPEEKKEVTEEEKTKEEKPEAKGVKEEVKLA
- test-description: HDAC1 enzyme inhibitory assay (HDAC-Glo I/II Assay kit)
- Format: biochemical
- experimental-context: 1 μM test compound; read-out: HDAC1 inhibitory rate (%) (1 μM)
just bin them by inhibition at 1 µM: lowest: < 10%; middle: ≥ 10% and < 20%; highest: ≥ 20%

Task item: Assign a bin to O=C(NCC1COCCN1C(=O)c1cccc(C(F)(F)F)c1)c1ccc(-c2noc(C(F)(F)F)n2)cc1 (stereo not drawn)
Reply: middle

Task item: Dear colleague, I would appreciate it if you could identify the bin for O=C(NC[C@H]1COCCN1C(=O)N1CCCC(CO)C1)c1ccc(-c2noc(C(F)(F)F)n2)cc1 (stereo partly drawn) and reply at your convenience.
Reply: lowest

Task item: # bin lookup: classify O=C(NC[C@H]1COCCN1C(=O)N1CCC(c2ccncc2)C1)c1ccc(-c2noc(C(F)(F)F)n2)cc1 (stereo partly drawn) by its inhibition at 1 µM
Reply: lowest

Task item: Class for O=C(NC[C@H]1COCCN1C(=O)C(F)(F)c1ccccc1)c1ccc(-c2noc(C(F)(F)F)n2)cn1 ?
Reply: highest

Task item: Category of COC(=O)c1cccc(C(=O)N2CCOC[C@@H]2CNC(=O)c2ccc(-c3noc(C(F)(F)F)n3)cc2)c1 :
Reply: middle

Task item: Form field 'band' for Cc1oncc1C(=O)N1CCOC[C@@H]1CNC(=O)c1ccc(-c2noc(C(F)(F)F)n2)cc1
Reply: highest

Task item: Which class holds O=C(NC[C@H]1COCCN1C(=O)C1CCCCC1)c1ccc(-c2noc(C(F)(F)F)n2)cc1 ?
Reply: middle

Task item: // return the class label for O=C(NC[C@H]1COCCN1C(=O)c1cccc(-c2ccccc2)c1)c1ccc(-c2noc(C(F)(F)F)n2)s1
Reply: middle

Task item: Which class is correct for the following compound? O=C(C[C@H]1COCCN1C(=O)c1ccccc1)Nc1ccc(-c2noc(C(F)(F)F)n2)cc1
Reply: middle

Task item: Which category fits this record: O=C(NCC1COCCN1C(=O)c1cc(Cl)cc(Cl)c1)c1ccc(-c2noc(C(F)(F)F)n2)cc1 (stereo not drawn) [Example 30]
Reply: highest

Task item: Hey, which category is CN(CC1COCCN1C(=O)c1ccccc1)C(=O)c1ccc(-c2noc(C(F)(F)F)n2)cc1 (stereo not drawn) in, do you know?
Reply: middle

Task item: Which inhibition at 1 µM band matches O=C(NC[C@H]1COCCN1C(=O)N1CCCC(F)(F)C1)c1ccc(-c2noc(C(F)(F)F)n2)cc1 ?
Reply: lowest

Task item: # classify by inhibition at 1 µM band: CC(C)(C(=O)N1CCOCC1CNC(=O)c1ccc(-c2noc(C(F)(F)F)n2)cc1)n1cccn1 (stereo in doubt)
Reply: middle

Task item: Which band does Cc1cc(C(=O)NCC2COCCN2C(=O)c2ccccc2)ccc1-c1noc(C(F)(F)F)n1 (stereo not drawn) fall in?
Reply: lowest

---

- tested-on: HDAC1 enzyme (Homo sapiens, UniProt Q13547)
- Construct: prepared by transducing full length HDAC1 and HDAC6 genes into Sf-9 insect cells; GST; purchased SignalChem; host or cells: Sf-9 insect cells
- test-description: HDAC1 enzyme inhibitory assay (HDAC-Glo I/II Assay kit)
- Type: biochemical
- experimental-context: 1 μM test compound; 1 µM
- Protocol: HDAC1 enzyme and HDAC6 enzyme each prepared by transducing full length HDAC1 and HDAC6 genes into Sf-9 insect cells and purifying by GST affinity column were purchased from SignalChem. Using these enzymes, HDAC1 and/or HDAC6 enzyme inhibitory activities of the compound of the present invention were evaluated. […] HDAC1 or HDAC6 enzyme inhibitory activity of the compound of the present invention was measured using HDAC-Glo™ I/II Assay kit (Promega) according to the following experimental method. […]
Please go through the items and note down their HDAC1 inhibitory rate (%) (1 μM).
State just the number; it will be interpreted in %.

Task item: Quick one: HDAC1 inhibitory rate (%) (1 μM) of O=C(NC[C@H]1COCCN1C(=O)N1CCC(CCO)C1)c1ccc(-c2noc(C(F)(F)F)n2)cc1 (stereo partly drawn) ?
Reply: 3

Task item: Consider the compound shown here: O=C(NC[C@H]1COCCN1C(=O)c1cccc(F)c1)c1ccc(-c2noc(C(F)(F)F)n2)cc1 What is its recorded HDAC1 inhibitory rate (%) (1 μM)?
Reply: 65

Task item: Query (compound): O=C(NCC1COCCN1C(=O)C1CCNC1=O)c1ccc(-c2noc(C(F)(F)F)n2)cc1 (stereo in doubt) ; field requested: HDAC1 inhibitory rate (%) (1 μM)
Reply: 8

---

Give measured inhibition at 1 µM for each item. Keep answers brief.
- tested-on: HDAC6 enzyme (Homo sapiens)
- Construct: prepared by transducing full length HDAC1 and HDAC6 genes into Sf-9 insect cells; GST; purchased SignalChem; host or cells: Sf-9 insect cells
- test-description: HDAC6 enzyme inhibitory assay (HDAC-Glo I/II Assay kit)
- Type: biochemical
- experimental-context: 1 μM test compound; read-out: HDAC6 inhibitory rate (%) (1 μM)
Write the value in % as a bare number.

Task item: Look up inhibition at 1 µM for this compound: Cc1cc(C(=O)N2CCOCC2CNC(=O)c2ccc(-c3noc(C(F)(F)F)n3)s2)n(C)n1 (stereo not shown)
Reply: 88

Task item: Item O=C(NC[C@H]1COCCN1C(=O)c1cc[nH]n1)c1ccc(-c2noc(C(F)(F)F)n2)cc1 has what recorded inhibition at 1 µM?
Reply: 89

Task item: State the recorded inhibition at 1 µM for this entry: O=C(NCC1Cc2ccccc2N1C(=O)c1cc(Cl)cc(Cl)c1)c1ccc(-c2noc(C(F)(F)F)n2)cc1 (stereo not shown)
Reply: 70

Task item: Which inhibition at 1 µM is reported for this compound? O=C(NC[C@H]1COCCN1C(=O)c1cc2ccccc2o1)c1ccc(-c2noc(C(F)(F)F)n2)cn1
Reply: 91

Task item: Which inhibition at 1 µM value belongs to C[C@H]1CCCN1C(=O)N1CCOC[C@@H]1CNC(=O)c1ccc(-c2noc(C(F)(F)F)n2)cc1 ?
Reply: 102

Task item: Look up inhibition at 1 µM for this compound: Cn1nc(C(F)(F)F)cc1C(=O)N1CCOC[C@H]1CNC(=O)c1ccc(-c2noc(C(F)(F)F)n2)cc1
Reply: 92

Task item: Consider the compound shown here: Cc1nonc1C(=O)N1CCOC[C@@H]1CNC(=O)c1ccc(-c2noc(C(F)(F)F)n2)s1 What is its recorded inhibition at 1 µM?
Reply: 98

---

Assignment: determine reported inhibition at 1 µM for the given compounds.
- tested-on: HDAC1 enzyme (Homo sapiens, UniProt Q13547)
- Construct: prepared by transducing full length HDAC1 and HDAC6 genes into Sf-9 insect cells; GST; purchased SignalChem; host or cells: Sf-9 insect cells
- test-description: HDAC1 enzyme inhibitory assay (HDAC-Glo I/II Assay kit)
- Format: biochemical
- experimental-context: 1 μM test compound; read-out: HDAC1 inhibitory rate (%) (1 μM)
I only need the number, in %, no unit after it.

Task item: Fill blank: measured inhibition at 1 µM of the compound O=C(NCC1COCCN1C(=O)c1ccccc1)c1ccc(-c2noc(C(F)(F)F)n2)cn1 (stereo not shown) [Example 181] is ____.
Reply: 29

Task item: I have this compound here, O=C(NC[C@H]1COCCN1C(=O)N1CC[C@@H](O)C1)c1ccc(-c2noc(C(F)(F)F)n2)cc1 [Example 275] , and I need its recorded inhibition at 1 µM.
Reply: 5

Task item: I'd like to know its inhibition at 1 µM. The compound in question is O=C(NC[C@@H]1COCCN1C(=O)c1cc(Cl)cc(Cl)c1)c1ccc(-c2noc(C(F)(F)F)n2)cn1 [Example 209]
Reply: 21

Task item: Need inhibition at 1 µM, item O=C(NCC1COCCN1C(=O)c1ccccc1N1CCOCC1)c1ccc(-c2noc(C(F)(F)F)n2)cc1 (stereo in doubt) [Example 118]
Reply: 17

Task item: I am curious: what inhibition at 1 µM value has been reported for O=C(NC[C@H]1COCCN1C(=O)N1CCC[C@H]1CO)c1ccc(-c2noc(C(F)(F)F)n2)cc1 [Example 107] ?
Reply: 14

Task item: Reported inhibition at 1 µM for O=C(NC[C@H]1COCCN1C(=O)N1CCC(c2ccccc2)C1)c1ccc(-c2noc(C(F)(F)F)n2)cc1 (stereo partly shown) [Example 293] : what is it?
Reply: 14

Task item: Look up inhibition at 1 µM for this compound: O=C(NC[C@H]1COCCN1C(=O)N1CCCC1c1cccnc1)c1ccc(-c2noc(C(F)(F)F)n2)cc1 (stereo partly shown) [Example 292]
Reply: 2

---

- tested-on: HDAC6 enzyme (Homo sapiens, UniProt Q9UBN7)
- Construct: prepared by transducing full length HDAC1 and HDAC6 genes into Sf-9 insect cells; GST; purchased SignalChem; host or cells: Sf-9 insect cells
- Sequence (Q9UBN7 whole entry): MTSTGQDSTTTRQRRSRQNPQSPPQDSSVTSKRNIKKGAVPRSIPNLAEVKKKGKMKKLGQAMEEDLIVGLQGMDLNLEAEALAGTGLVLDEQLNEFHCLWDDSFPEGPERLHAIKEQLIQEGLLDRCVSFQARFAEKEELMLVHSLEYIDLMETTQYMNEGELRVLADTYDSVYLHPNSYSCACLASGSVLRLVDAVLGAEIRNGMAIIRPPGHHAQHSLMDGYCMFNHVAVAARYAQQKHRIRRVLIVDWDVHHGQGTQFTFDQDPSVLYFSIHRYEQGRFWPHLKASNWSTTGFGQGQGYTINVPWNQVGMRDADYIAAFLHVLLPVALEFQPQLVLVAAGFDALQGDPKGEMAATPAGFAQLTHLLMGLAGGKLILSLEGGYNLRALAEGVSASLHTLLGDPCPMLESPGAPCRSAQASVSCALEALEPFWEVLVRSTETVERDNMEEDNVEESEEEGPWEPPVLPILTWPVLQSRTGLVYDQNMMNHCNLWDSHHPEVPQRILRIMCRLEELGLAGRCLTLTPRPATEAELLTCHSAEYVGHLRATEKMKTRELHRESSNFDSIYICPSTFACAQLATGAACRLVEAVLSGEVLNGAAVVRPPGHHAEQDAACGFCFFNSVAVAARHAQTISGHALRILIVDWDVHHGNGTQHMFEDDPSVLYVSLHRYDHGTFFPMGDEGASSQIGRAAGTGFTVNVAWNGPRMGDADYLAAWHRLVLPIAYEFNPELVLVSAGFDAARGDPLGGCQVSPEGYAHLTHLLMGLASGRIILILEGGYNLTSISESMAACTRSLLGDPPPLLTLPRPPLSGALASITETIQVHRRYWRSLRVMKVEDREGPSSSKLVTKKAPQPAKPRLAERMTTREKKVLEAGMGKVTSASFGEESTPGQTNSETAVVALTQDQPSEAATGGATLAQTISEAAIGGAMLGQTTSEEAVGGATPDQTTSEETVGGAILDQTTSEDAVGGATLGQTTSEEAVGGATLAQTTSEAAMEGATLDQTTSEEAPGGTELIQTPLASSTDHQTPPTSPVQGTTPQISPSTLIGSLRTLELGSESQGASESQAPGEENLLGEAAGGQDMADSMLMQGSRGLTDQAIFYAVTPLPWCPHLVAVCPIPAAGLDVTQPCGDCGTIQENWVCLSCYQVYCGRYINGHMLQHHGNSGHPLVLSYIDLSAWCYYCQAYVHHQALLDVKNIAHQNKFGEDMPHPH
- test-description: HDAC6 enzyme inhibitory assay (HDAC-Glo I/II Assay kit)
- Assay type: biochemical
- experimental-context: 1 μM test compound; read-out: HDAC6 inhibitory rate (%) (1 μM)
Assign inhibition at 1 µM to each entry below.
Write the answer as a number in %, unit excluded.

Task item: Lookup: inhibition at 1 µM / HDAC6 enzyme (Homo sapiens, UniProt Q9UBN7) / O=C(NC[C@@H]1COCCN1C(=O)c1ccc(OCC(F)(F)F)nc1)c1ccc(-c2noc(C(F)(F)F)n2)cc1
Reply: 95

Task item: inhibition at 1 µM of Cn1nc(C(F)(F)F)cc1C(=O)N1CCOC[C@@H]1CNC(=O)c1ccc(-c2noc(C(F)(F)F)n2)cc1 on HDAC6 enzyme (Homo sapiens, UniProt Q9UBN7)?
Reply: 93

Task item: Requested read-out inhibition at 1 µM, target or system HDAC6 enzyme (Homo sapiens, UniProt Q9UBN7), entry O=C(NC[C@H]1COCCN1C(=O)N1CCCOC(CO)C1)c1ccc(-c2noc(C(F)(F)F)n2)cc1 (stereo partly shown)
Reply: 90

Task item: Query for HDAC6 enzyme (Homo sapiens, UniProt Q9UBN7): what inhibition at 1 µM does the record show for O=C(NCC1COCCN1C(=O)c1ccno1)c1ccc(-c2noc(C(F)(F)F)n2)s1 (stereo not shown) ?
Reply: 97

Task item: Lab request: please report inhibition at 1 µM under test system HDAC6 enzyme (Homo sapiens, UniProt Q9UBN7) for CN1CCC[C@H]1C(=O)N1CCOC[C@@H]1CNC(=O)c1ccc(-c2noc(C(F)(F)F)n2)cc1
Reply: 59

Task item: // fetch HDAC6 enzyme (Homo sapiens, UniProt Q9UBN7) inhibition at 1 µM for O=C(NCC1COCCN1C(=O)c1cc(F)cc(F)c1)c1ccc(-c2noc(C(F)(F)F)n2)s1 (stereo not shown)
Reply: 95

Task item: Record lookup: for HDAC6 enzyme (Homo sapiens, UniProt Q9UBN7), what inhibition at 1 µM belongs to O=C(NC[C@H]1COCCN1C(=O)C1(c2ccccc2)CC1)c1ccc(-c2noc(C(F)(F)F)n2)cc1 ?
Reply: 97
